B1: HDV Ribozyme (parent)
chain: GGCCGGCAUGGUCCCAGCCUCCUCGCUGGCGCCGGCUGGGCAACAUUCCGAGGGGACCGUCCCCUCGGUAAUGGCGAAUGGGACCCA

variants of: B1; experiment: self-cleavage, relative activity (ratio to wild type); higher = more cleavage; co-transcriptional
Below: a set of entries, each annotated with reported self-cleavage.
MEASUREMENT_TYPE: self-cleavage

- VARIANT_NAME: "A51G U65C"
  MEASUREMENT_TYPE: "self-cleavage"
  MEAS_VALUE: 1.26
- VARIANT_NAME: "G5A G31A"
  MEASUREMENT_TYPE: "self-cleavage"
  MEAS_VALUE: 0
- VARIANT_NAME: "C21A G50U"
  MEASUREMENT_TYPE: "self-cleavage"
  MEAS_VALUE: 0.0332
- VARIANT_NAME: "A42U G74C"
  MEASUREMENT_TYPE: "self-cleavage"
  MEAS_VALUE: 0.17
- VARIANT_NAME: "G1C A78C"
  MEASUREMENT_TYPE: "self-cleavage"
  MEAS_VALUE: 0
- VARIANT_NAME: "C63U A77G"
  MEASUREMENT_TYPE: "self-cleavage"
  MEAS_VALUE: 0.882
- VARIANT_NAME: "C21U C33A"
  MEASUREMENT_TYPE: "self-cleavage"
  MEAS_VALUE: 0
- VARIANT_NAME: "G68C G76A"
  MEASUREMENT_TYPE: "self-cleavage"
  MEAS_VALUE: 1.04
- VARIANT_NAME: "C24G G40U"
  MEASUREMENT_TYPE: "self-cleavage"
  MEAS_VALUE: 0.17
- VARIANT_NAME: "U27G G68C"
  MEASUREMENT_TYPE: "self-cleavage"
  MEAS_VALUE: 0.87
- VARIANT_NAME: "U65G A78U"
  MEASUREMENT_TYPE: "self-cleavage"
  MEAS_VALUE: 0.569
- VARIANT_NAME: "G67C U72C"
  MEASUREMENT_TYPE: "self-cleavage"
  MEAS_VALUE: 0.147
- VARIANT_NAME: "G17A C33U"
  MEASUREMENT_TYPE: "self-cleavage"
  MEAS_VALUE: 0.566
- VARIANT_NAME: "C7U G10A"
  MEASUREMENT_TYPE: "self-cleavage"
  MEAS_VALUE: 0.425
- VARIANT_NAME: "A70U C85A"
  MEASUREMENT_TYPE: "self-cleavage"
  MEAS_VALUE: 1.06
- VARIANT_NAME: "G38U U65C"
  MEASUREMENT_TYPE: "self-cleavage"
  MEAS_VALUE: 0.415
- VARIANT_NAME: "C3A U79G"
  MEASUREMENT_TYPE: "self-cleavage"
  MEAS_VALUE: 0.175
- VARIANT_NAME: "C58A G67U"
  MEASUREMENT_TYPE: "self-cleavage"
  MEAS_VALUE: 0.946
- VARIANT_NAME: "U46A G67A"
  MEASUREMENT_TYPE: "self-cleavage"
  MEAS_VALUE: 0.703
- VARIANT_NAME: "G6A A87G"
  MEASUREMENT_TYPE: "self-cleavage"
  MEAS_VALUE: 0.654
- VARIANT_NAME: "G39C A87U"
  MEASUREMENT_TYPE: "self-cleavage"
  MEAS_VALUE: 0.229
- VARIANT_NAME: "G25C U60G"
  MEASUREMENT_TYPE: "self-cleavage"
  MEAS_VALUE: 0.101
- VARIANT_NAME: "U23C G52C"
  MEASUREMENT_TYPE: "self-cleavage"
  MEAS_VALUE: 1.01
- VARIANT_NAME: "G5U G38U"
  MEASUREMENT_TYPE: "self-cleavage"
  MEAS_VALUE: 0.453
- VARIANT_NAME: "C7A C18A"
  MEASUREMENT_TYPE: "self-cleavage"
  MEAS_VALUE: 0.0852
- VARIANT_NAME: "C21A G52A"
  MEASUREMENT_TYPE: "self-cleavage"
  MEAS_VALUE: 0.132
- VARIANT_NAME: "G76C U79C"
  MEASUREMENT_TYPE: "self-cleavage"
  MEAS_VALUE: 0.643
- VARIANT_NAME: "A43G C66U"
  MEASUREMENT_TYPE: "self-cleavage"
  MEAS_VALUE: 0.672
- VARIANT_NAME: "U60C A77C"
  MEASUREMENT_TYPE: "self-cleavage"
  MEAS_VALUE: 0.575
- VARIANT_NAME: "G5A A77C"
  MEASUREMENT_TYPE: "self-cleavage"
  MEAS_VALUE: 0.0504
- VARIANT_NAME: "C3A A70C"
  MEASUREMENT_TYPE: "self-cleavage"
  MEAS_VALUE: 0.501
- VARIANT_NAME: "C30A C61G"
  MEASUREMENT_TYPE: "self-cleavage"
  MEAS_VALUE: 0.583
- VARIANT_NAME: "A8C G53A"
  MEASUREMENT_TYPE: "self-cleavage"
  MEAS_VALUE: 0.846
- VARIANT_NAME: "G55U G81A"
  MEASUREMENT_TYPE: "self-cleavage"
  MEAS_VALUE: 0.287
- VARIANT_NAME: "C18U U72C"
  MEASUREMENT_TYPE: "self-cleavage"
  MEAS_VALUE: 0.193
- VARIANT_NAME: "C14U A45G"
  MEASUREMENT_TYPE: "self-cleavage"
  MEAS_VALUE: 0.988
- VARIANT_NAME: "G38C U46C"
  MEASUREMENT_TYPE: "self-cleavage"
  MEAS_VALUE: 0.0923
- VARIANT_NAME: "U12C C63U"
  MEASUREMENT_TYPE: "self-cleavage"
  MEAS_VALUE: 0.389
- VARIANT_NAME: "C44U C63U"
  MEASUREMENT_TYPE: "self-cleavage"
  MEAS_VALUE: 0.806
- VARIANT_NAME: "G40U U72G"
  MEASUREMENT_TYPE: "self-cleavage"
  MEAS_VALUE: 0.23
- VARIANT_NAME: "C7G A56U"
  MEASUREMENT_TYPE: "self-cleavage"
  MEAS_VALUE: 0.475
- VARIANT_NAME: "G39A G68C"
  MEASUREMENT_TYPE: "self-cleavage"
  MEAS_VALUE: 0.441
- VARIANT_NAME: "C3G C30G"
  MEASUREMENT_TYPE: "self-cleavage"
  MEAS_VALUE: 0.0594
- VARIANT_NAME: "G28C C84G"
  MEASUREMENT_TYPE: "self-cleavage"
  MEAS_VALUE: 0.0332
- VARIANT_NAME: "U47A G50U"
  MEASUREMENT_TYPE: "self-cleavage"
  MEAS_VALUE: 1.18
